target: Keap1/Nrf2 (Homo sapiens, UniProt Q16236+Q14145); assay: Inhibition of 5'-TAMRA tagged NRF2 (unknown origin)/human recombinant N-terminal Avi tagged KEAP-1 (321 to 609 residues) expressed in Baculovirus system infected in Sf9 cells protein-protein interaction at 0.015 uM by fluorescence polarisation assay relative to control
Sequence (Q14145 whole entry, looked up, the tested form may be a part): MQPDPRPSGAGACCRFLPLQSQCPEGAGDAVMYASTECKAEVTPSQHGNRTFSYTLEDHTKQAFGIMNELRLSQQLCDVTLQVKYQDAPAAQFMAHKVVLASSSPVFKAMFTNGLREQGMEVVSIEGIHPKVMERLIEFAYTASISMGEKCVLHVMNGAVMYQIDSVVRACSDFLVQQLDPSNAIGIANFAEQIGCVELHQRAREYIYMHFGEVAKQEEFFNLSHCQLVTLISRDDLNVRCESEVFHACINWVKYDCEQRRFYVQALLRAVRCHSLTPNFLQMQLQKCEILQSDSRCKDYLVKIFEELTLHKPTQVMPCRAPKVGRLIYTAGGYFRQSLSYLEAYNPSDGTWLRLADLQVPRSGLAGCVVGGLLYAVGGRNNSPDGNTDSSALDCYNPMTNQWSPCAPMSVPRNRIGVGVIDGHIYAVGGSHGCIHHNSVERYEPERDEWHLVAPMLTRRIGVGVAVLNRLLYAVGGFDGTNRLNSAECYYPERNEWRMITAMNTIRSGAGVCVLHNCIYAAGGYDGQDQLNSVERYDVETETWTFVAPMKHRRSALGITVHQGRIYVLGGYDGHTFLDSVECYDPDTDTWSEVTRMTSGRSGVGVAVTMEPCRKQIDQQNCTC
Sequence (Q16236 whole entry, looked up, the tested form may be a part): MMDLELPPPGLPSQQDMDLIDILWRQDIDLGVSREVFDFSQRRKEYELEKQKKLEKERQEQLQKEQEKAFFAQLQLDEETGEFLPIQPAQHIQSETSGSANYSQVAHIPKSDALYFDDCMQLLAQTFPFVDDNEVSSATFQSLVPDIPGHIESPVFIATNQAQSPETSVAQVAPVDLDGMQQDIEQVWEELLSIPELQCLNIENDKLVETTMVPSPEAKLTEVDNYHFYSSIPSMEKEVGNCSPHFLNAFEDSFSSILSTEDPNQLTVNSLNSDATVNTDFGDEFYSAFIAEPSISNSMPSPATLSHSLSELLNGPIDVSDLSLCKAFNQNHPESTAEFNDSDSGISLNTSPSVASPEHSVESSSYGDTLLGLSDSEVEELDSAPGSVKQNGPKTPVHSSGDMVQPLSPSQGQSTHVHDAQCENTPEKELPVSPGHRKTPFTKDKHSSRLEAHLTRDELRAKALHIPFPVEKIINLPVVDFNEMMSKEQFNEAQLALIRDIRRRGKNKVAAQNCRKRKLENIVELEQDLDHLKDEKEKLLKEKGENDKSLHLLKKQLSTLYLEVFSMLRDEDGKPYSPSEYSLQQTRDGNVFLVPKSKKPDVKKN
ATTRIBUTE MEASURED: inhibition (%)
Your answer should be a plain number; it is taken to be in %.

Ask: Look at this molecule and give its reported inhibition. "O=C(O)c1cnn(-c2cccc(-c3cccc(C(=O)N4CCCC5(CCCC5)C4)c3F)c2)c1C1CC1"
Result: 50

Ask: Next molecule up: "CCC[C@@H]1CCCCN1C(=O)c1cccc(-c2cccc(-n3ncc(C(=O)O)c3C3CC3)c2)c1F"
Result: 52

Ask: Next molecule up: CCCC1CCCCN1C(=O)c1cccc(-c2cccc(-n3ncc(C(=O)O)c3C3CC3c3cn(C)nn3)c2)c1 (mixture of isomers)
Result: 84

Ask: Next molecule up: "CCCC[C@@H]1CCCN1C(=O)[C@H]1CCC[C@@H](c2cccc(-n3ncc(C(=O)O)c3C3CC3)c2)C1"
Result: 81

Ask: Next molecule up: "CCC[C@@H]1CCCCN1C(=O)c1cccc(-c2cccc(-n3ncc(C(=O)O)c3[C@H]3C[C@@H]3c3cn(C)nn3)c2)c1"
Result: 98

Ask: Next molecule up: CCCC1CCCCN1C(=O)c1cccc(-c2cccc(-n3ncc(C(=O)O)c3C3CC3c3cccnn3)c2)c1 (mixture of isomers)
Result: 50

Origin of values: ChEMBL document CHEMBL5150008
